target: the molecule itself; test: SEC; Superdex 200 10/300 GL, 50 mM Tris-HCl pH 8.0, 300 mM NaCl, 10 mM MgCl2; oligomeric state calculated from elution volumes of proteins of known size; addition of UTP, Glc-1-P or UDP-Glc did not affect the oligomerization of the WT
VALUE KIND: stoichiometry N
# output: bare number, no unit

Example results:
PaUGP D67A (enzyme, UDP-glucose pyrophosphorylase of Pseudomonas aeruginosa (galU), residues 1-279, point mutant of Strep-PaUGP; Same construct as m1; source: E. coli BL21(DE3), purified (Strep-Tactin Sepharose); not shown: Strep-tagII, N-terminal, kept) MIKKCLFPAAGYGTRFLPATKAMPKEMLPVVNKPLIQYAVEEALEAGLSEIGIVTGRGKRSLEDHFAISYELEHQIRNTDKEKYLVGIRRLIDECTFAYTRQVEMKGLGHAILTGRPLIGDEPFAVVLADDLCLNLEGDSVLKQMVKLYNQFRCSIVAIQEVPPEETNKYGVIAGEMIRDDIFRVNTMVEKPKPEEAPSNLAIIGRYILTPDIFDLIEQTEPGKGGEIQITDALMKQAQDGCVLAYKFKGKRFDCGSAEGYIEATNFCYENLYKTGKAH; 2.3
PaUGP Q75E (enzyme, UDP-glucose pyrophosphorylase of Pseudomonas aeruginosa (galU), residues 1-279, point mutant of Strep-PaUGP; Same construct as m1; source: E. coli BL21(DE3), purified (Strep-Tactin Sepharose); not shown: Strep-tagII, N-terminal, kept) MIKKCLFPAAGYGTRFLPATKAMPKEMLPVVNKPLIQYAVEEALEAGLSEIGIVTGRGKRSLEDHFDISYELEHEIRNTDKEKYLVGIRRLIDECTFAYTRQVEMKGLGHAILTGRPLIGDEPFAVVLADDLCLNLEGDSVLKQMVKLYNQFRCSIVAIQEVPPEETNKYGVIAGEMIRDDIFRVNTMVEKPKPEEAPSNLAIIGRYILTPDIFDLIEQTEPGKGGEIQITDALMKQAQDGCVLAYKFKGKRFDCGSAEGYIEATNFCYENLYKTGKAH; 3.5
PaUGP N32D (enzyme, UDP-glucose pyrophosphorylase of Pseudomonas aeruginosa (galU), residues 1-279, point mutant of Strep-PaUGP; Same construct as m1; source: E. coli BL21(DE3), purified (Strep-Tactin Sepharose); not shown: Strep-tagII, N-terminal, kept) MIKKCLFPAAGYGTRFLPATKAMPKEMLPVVDKPLIQYAVEEALEAGLSEIGIVTGRGKRSLEDHFDISYELEHQIRNTDKEKYLVGIRRLIDECTFAYTRQVEMKGLGHAILTGRPLIGDEPFAVVLADDLCLNLEGDSVLKQMVKLYNQFRCSIVAIQEVPPEETNKYGVIAGEMIRDDIFRVNTMVEKPKPEEAPSNLAIIGRYILTPDIFDLIEQTEPGKGGEIQITDALMKQAQDGCVLAYKFKGKRFDCGSAEGYIEATNFCYENLYKTGKAH; 4.7

Attention now shifts to the item below.
Tell me measured stoichiometry N for PaUGP K59A (enzyme, UDP-glucose pyrophosphorylase of Pseudomonas aeruginosa (galU), residues 1-279, point mutant of Strep-PaUGP; Same construct as m1; source: E. coli BL21(DE3), purified (Strep-Tactin Sepharose); not shown: Strep-tagII, N-terminal, kept) MIKKCLFPAAGYGTRFLPATKAMPKEMLPVVNKPLIQYAVEEALEAGLSEIGIVTGRGARSLEDHFDISYELEHQIRNTDKEKYLVGIRRLIDECTFAYTRQVEMKGLGHAILTGRPLIGDEPFAVVLADDLCLNLEGDSVLKQMVKLYNQFRCSIVAIQEVPPEETNKYGVIAGEMIRDDIFRVNTMVEKPKPEEAPSNLAIIGRYILTPDIFDLIEQTEPGKGGEIQITDALMKQAQDGCVLAYKFKGKRFDCGSAEGYIEATNFCYENLYKTGKAH please.
3.6
